The reported measurements were obtained from the supplement of paper PMC7125110.

Catalogue of self-cleavage kobs at 2500 uM GlcN6P values
B1: glmS ribozyme (parent)
chain: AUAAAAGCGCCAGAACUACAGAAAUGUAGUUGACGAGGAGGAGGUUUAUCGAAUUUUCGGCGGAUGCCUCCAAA

Variants of: B1
Test: self-cleavage kobs at 2500 uM GlcN6P; higher = faster cleavage; RNA array
Reported conditions: with glucosamine-6-phosphate
Fewer inactive variants are shown than the library holds.
Give the value, in units of s⁻¹, as a plain number.

Reference set, count: 8
[
  {
    "Variant name": "C16G U31G A42G",
    "self-cleavage kobs at 2500 uM GlcN6P, s⁻¹": 0.000761
  },
  {
    "Variant name": "A48G U54C",
    "self-cleavage kobs at 2500 uM GlcN6P, s⁻¹": 0.000101
  },
  {
    "Variant name": "U55C G66C",
    "self-cleavage kobs at 2500 uM GlcN6P, s⁻¹": 0.000678
  },
  {
    "Variant name": "U45A C58G",
    "self-cleavage kobs at 2500 uM GlcN6P, s⁻¹": 0.000129
  },
  {
    "Variant name": "G13C A15U",
    "self-cleavage kobs at 2500 uM GlcN6P, s⁻¹": "5.63e-05"
  },
  {
    "Variant name": "G13U G29A",
    "self-cleavage kobs at 2500 uM GlcN6P, s⁻¹": 0.000121
  },
  {
    "Variant name": "U65A C68A",
    "self-cleavage kobs at 2500 uM GlcN6P, s⁻¹": 0.00015
  },
  {
    "Variant name": "U31C U56G",
    "self-cleavage kobs at 2500 uM GlcN6P, s⁻¹": 0.00194
  }
]

Okay, next one:
-- ask Name the reported self-cleavage kobs at 2500 uM GlcN6P value associated with the variant G26U A42U
-- reply 0.000124
